Source: ChEMBL document CHEMBL3352278

System: Human immunodeficiency virus 1
METHOD_DESCRIPTION: Antiviral activity against wild-type HIV1 3B infected in human MT4 cells assessed as inhibition of viral cytopathic effect by MTT assay
Format: functional, organism-based
REPORTED_CONDITIONS: Human immunodeficiency virus 1, 3B
EXPERIMENTAL_ENDPOINT: EC50

Use the examples below as a reference point.
SUBSTANCE_SMILES | TARGET_OR_TEST_SYSTEM | ENDPOINT_RESULT
O=C(NCc1ccc(F)cc1)c1nc(-c2ccc(F)cc2)[nH]c(=O)c1O | Human immunodeficiency virus 1 | 1.72 µM
O=C(NCCc1ccc(F)cc1)c1nc(-c2ccc(F)cc2)[nH]c(=O)c1O | Human immunodeficiency virus 1 | > 30 µM
O=C(NCc1ccc(Cl)cc1)c1nc(-c2ccc(F)cc2)[nH]c(=O)c1O | Human immunodeficiency virus 1 | 8.1 µM
O=C(NCc1ccc(F)c(Cl)c1)c1nc(-c2ccc(F)cc2)[nH]c(=O)c1O | Human immunodeficiency virus 1 | 1.3 µM

Q: Entry under review: `COc1ccc(CNC(=O)c2nc(-c3ccc(F)cc3)[nH]c(=O)c2O)cc1` . Reported EC50?
Result: 7.61 µM

---

METHOD_DESCRIPTION: Retention time of the compound by HPLC
Type: physicochemical
Provide the reported Retention_time of each item.
Give bare numbers, in min.

Take a look at these entries with their results.
SUBSTANCE_SMILES | EXPERIMENTAL_ENDPOINT | UNIT_LABEL | ENDPOINT_RESULT
O=C(NCCc1ccc(F)cc1)c1nc(-c2ccc(F)cc2)[nH]c(=O)c1O | Retention_time | min | 4.748
COc1ccc(CNC(=O)c2nc(-c3ccc(F)cc3)[nH]c(=O)c2O)cc1 | Retention_time | min | 4.134
O=C(NCc1ccc(F)cc1)c1nc(-c2ccccc2F)[nH]c(=O)c1O | Retention_time | min | 2.949

Would you mind listing Retention_time for each of the following compounds?
1. O=C(NCc1ccc(Br)cc1)c1nc(-c2ccc(F)cc2)[nH]c(=O)c1O
2. O=C(NCc1ccc(F)cc1)c1nc(-c2ccc(F)cc2)[nH]c(=O)c1O

Result:
[5.373, 4.075]

---

TARGET_OR_TEST_SYSTEM: Human immunodeficiency virus type 1 integrase (Human immunodeficiency virus 1)
Sequence (Q7ZJM1 whole entry): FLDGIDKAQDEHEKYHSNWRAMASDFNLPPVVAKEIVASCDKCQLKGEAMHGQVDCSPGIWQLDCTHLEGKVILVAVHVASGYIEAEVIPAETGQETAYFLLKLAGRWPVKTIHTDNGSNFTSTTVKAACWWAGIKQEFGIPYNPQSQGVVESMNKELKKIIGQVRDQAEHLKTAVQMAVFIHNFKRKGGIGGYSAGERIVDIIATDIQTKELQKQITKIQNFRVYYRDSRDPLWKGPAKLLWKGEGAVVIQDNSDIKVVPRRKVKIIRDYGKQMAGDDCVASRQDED
METHOD_DESCRIPTION: Inhibition of HIV1 recombinant wild type integrase strand transfer activity by gel-based assay
EXPERIMENTAL_ENDPOINT: pIC50
Give bare numbers, as −log10 of the molar value.

Before answering, review these 5 worked examples.
SUBSTANCE_SMILES | pIC50
O=C(NCc1ccc(Cl)cc1)c1nc(-c2ccc(F)cc2)[nH]c(=O)c1O | 6.10
O=C(NCc1ccc(F)c(Cl)c1)c1nc(-c2ccc(F)cc2)[nH]c(=O)c1O | 5.40
O=C(NCc1cc(F)c(F)c(F)c1)c1nc(-c2ccc(F)cc2)[nH]c(=O)c1O | 5.10
O=C(NCc1ccc(F)cc1)c1nc(-c2cccc(F)c2)[nH]c(=O)c1O | 6.00
O=C(NCCc1ccc(F)cc1)c1nc(-c2ccc(F)cc2)[nH]c(=O)c1O | 5.40

Field: pIC50. Fill in for each record below.
1. COc1ccc(CNC(=O)c2nc(-c3ccc(F)cc3)[nH]c(=O)c2O)cc1
2. O=C(NCc1ccc(O)cc1)c1nc(-c2ccc(F)cc2)[nH]c(=O)c1O

Result:
5.70
5.22

Can you give me pIC50 for all of these, one by one?
1. O=C(NCc1ccc(F)cc1)c1nc(-c2ccccc2)[nH]c(=O)c1O
2. O=C(NCc1ccccc1F)c1nc(-c2ccc(F)cc2)[nH]c(=O)c1O
3. Cc1ccc(CNC(=O)c2nc(-c3ccc(F)cc3)[nH]c(=O)c2O)cc1C
4. O=C(NCc1ccc(F)cc1)c1nc(Cc2ccc(F)cc2)[nH]c(=O)c1O
5. O=C(NCc1ccc(F)cc1)c1nc(-c2ccc(Cl)cc2)[nH]c(=O)c1O
6. O=C(NCc1ccc(F)cc1)c1nc(-c2ccccc2F)[nH]c(=O)c1O
7. O=C(NCc1ccc(Br)cc1)c1nc(-c2ccc(F)cc2)[nH]c(=O)c1O

Result:
[6.00, 5.15, 6.30, 5.00, 5.70, 5.70, 6.30]

---

METHOD_DESCRIPTION: Cytotoxicity against human MT4 cells assessed as cell viability by MTT assay
Type: cell-based
Labelling field: enter Condition met if recorded CC50 is less than 40 µM. Enter Condition not met if it equals or exceeds that cut-off.

Reference set (2 entries):
SUBSTANCE_SMILES | DISCRETE_LABEL
O=C(NCc1ccc(Cl)cc1)c1nc(-c2ccc(F)cc2)[nH]c(=O)c1O | Condition not met
O=C(NCc1cc(F)c(F)c(F)c1)c1nc(-c2ccc(F)cc2)[nH]c(=O)c1O | Condition met

Q: Would you kindly verify if CC50 of `O=C(NCc1cccc(Cl)c1F)c1nc(-c2ccc(F)cc2)[nH]c(=O)c1O` is strictly less than 40 µM?
Result: Condition not met

Q: Record `O=C(NCc1ccc(F)cc1)c1nc(-c2ccc(F)cc2)[nH]c(=O)c1O` : is its CC50 strictly below 40 µM?
Result: Condition not met

Q: A record lists `O=C(NCc1ccccc1)c1nc(-c2ccccc2)nc(O)c1O` . Is its CC50 below 40 µM?
Result: Condition not met

---

METHOD_DESCRIPTION: Therapeutic index, ratio of CC50 for human MT4 cells to EC50 for HIV1 3B infected in human MT4 cells
Assay type: cell-based
REPORTED_CONDITIONS: HIV1 3B infected MT4 cells, read-out: Ratio CC50/EC50
EXPERIMENTAL_ENDPOINT: selectivity ratio
One number for each entry.

SUBSTANCE_SMILES | EXPERIMENTAL_ENDPOINT | ENDPOINT_RESULT
O=C(NCc1ccc(F)cc1)c1nc(-c2ccc(F)cc2)[nH]c(=O)c1O | selectivity ratio | 26
O=C(NCc1ccc(F)c(Cl)c1)c1nc(-c2ccc(F)cc2)[nH]c(=O)c1O | selectivity ratio | 35
O=C(NCc1ccc(F)c(F)c1)c1nc(-c2ccc(F)cc2)[nH]c(=O)c1O | selectivity ratio | 6

Consider the record given below.
Q: Which selectivity ratio is reported for this compound? `COc1ccc(CNC(=O)c2nc(-c3ccc(F)cc3)[nH]c(=O)c2O)cc1`
Result: 6

---

METHOD_DESCRIPTION: Retention time of the compound by HPLC
Assay type: physicochemical
EXPERIMENTAL_ENDPOINT: Retention_time (min)
Answers are plain numbers, in min.

SUBSTANCE_SMILES | Retention_time, min
O=C(NCc1ccc(F)cc1)c1nc(-c2ccc(Cl)cc2)[nH]c(=O)c1O | 2.306
O=C(NCc1cccc(F)c1)c1nc(-c2ccc(F)cc2)[nH]c(=O)c1O | 4.349
O=C(NCc1ccccc1)c1nc(-c2ccccc2)nc(O)c1O | 2.288
O=C(NCc1ccc(F)cc1)c1nc(-c2ccccc2)[nH]c(=O)c1O | 2.378
Cc1ccc(CNC(=O)c2nc(-c3ccc(F)cc3)[nH]c(=O)c2O)cc1C | 6.437

Could you now consider this next molecule?
Q: So what's the measured Retention_time for this one? `O=C(NCc1cccc(Cl)c1F)c1nc(-c2ccc(F)cc2)[nH]c(=O)c1O`
Result: 2.309

---

METHOD_DESCRIPTION: Therapeutic index, ratio of CC50 for human MT4 cells to EC50 for HIV1 3B infected in human MT4 cells
Format: cell-based
REPORTED_CONDITIONS: HIV1 3B infected MT4 cells, read-out: Ratio CC50/EC50
EXPERIMENTAL_ENDPOINT: selectivity ratio
Numbers only.

A selection of reference data follows.
SUBSTANCE_SMILES | selectivity ratio
O=C(NCc1ccc(O)cc1)c1nc(-c2ccc(F)cc2)[nH]c(=O)c1O | 7
O=C(NCc1cccc(Cl)c1F)c1nc(-c2ccc(F)cc2)[nH]c(=O)c1O | 18
O=C(NCc1cccc(F)c1)c1nc(-c2ccc(F)cc2)[nH]c(=O)c1O | 7
O=C(NCc1cc(F)c(F)c(F)c1)c1nc(-c2ccc(F)cc2)[nH]c(=O)c1O | 7
O=C(NCc1cccc(Cl)c1)c1nc(-c2ccc(F)cc2)[nH]c(=O)c1O | 18

Quick request: selectivity ratio for each listed item, please.
1. Cc1ccc(CNC(=O)c2nc(-c3ccc(F)cc3)[nH]c(=O)c2O)cc1C
2. O=C(NCc1ccccc1)c1nc(-c2ccccc2)nc(O)c1O
3. O=C(NCc1ccc(Cl)cc1)c1nc(-c2ccc(F)cc2)[nH]c(=O)c1O
4. O=C(NCc1ccc(Br)cc1)c1nc(-c2ccc(F)cc2)[nH]c(=O)c1O

Result:
1: 12; 2: 9; 3: 5; 4: 4

Q: Endpoint output: selectivity ratio of `O=C(NCc1ccccc1F)c1nc(-c2ccc(F)cc2)[nH]c(=O)c1O` . Value?
Result: 4
